# credit: patent US20260200926A1

target: Human TREM2 (Homo sapiens, UniProt Q9NZC2); construct: expressed in transfected cells; assay: Human TREM2 activity: cellular phosphorylation of Syk (AlphaLISA SureFire Ultra p-SYK) in HEK293/DAP12+TREM2 stable cell line; format: cell-based; details: phospho-Syk AlphaLISA signal, HEK293/DAP12+TREM2 cells; concentration giving 50% of maximal response; read-out: EC50
Sequence (Q9NZC2 19-230): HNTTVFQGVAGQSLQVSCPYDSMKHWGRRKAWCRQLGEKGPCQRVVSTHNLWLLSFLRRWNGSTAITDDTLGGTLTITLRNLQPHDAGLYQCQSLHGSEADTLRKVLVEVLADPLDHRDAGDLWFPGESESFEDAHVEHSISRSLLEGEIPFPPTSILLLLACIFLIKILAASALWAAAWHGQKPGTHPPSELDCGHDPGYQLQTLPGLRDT
Sequence (O43914 22-113 partner): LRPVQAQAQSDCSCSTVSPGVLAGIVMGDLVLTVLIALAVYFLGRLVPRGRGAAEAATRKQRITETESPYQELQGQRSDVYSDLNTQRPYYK
Below, each of the molecules is paired with its reported EC50 value.

// worked examples, EC50 included
Cc1nc2c(-c3ccc(F)cc3F)nc(N3C[C@@H](C)O[C@@H](c4cnn(C5CC5)c4)C3)nc2c(=O)n1C (single isomer, unassigned) [Example 177B] : 1 to 10 nM
Cc1cc([C@@H]2CN(c3cc4c(=O)n(C)c(C)nc4c(-c4ccc(C(F)(F)F)cc4F)n3)CC(C)(C)O2)ccn1 (single isomer, unassigned) [Example 163A] : 100 to 1000 nM
Cc1nc2c(-c3ccc(Cl)cc3F)nc(N3CCOC(c4ncc[nH]4)C3)nc2c(=O)n1C (stereo not shown) : > 1000 nM

Now, please, on to the next molecule.
Task: For the molecule shown here, Cc1nc2c(-c3ccc(Cl)cc3F)nc(N3CCOC(c4cnn(C5COC5)c4)C3)nc2c(=O)n1C (stereo not shown) , give the reported EC50.
Result: 10 to 100 nM
